molecular target: CD28 (Homo sapiens, UniProt P10747); test: Jurkat/IL2 + CHO/OKT3 +/- PD-L1 reporter assay: PD-L1-dependent CD28 costimulation; assay type: cell-based; design: host or cells: Jurkat cells expressing an IL-2-luciferase reporter; conditions: Table E13; Jurkat/IL2 + CHO/OKT3/PD-L1; 5.0 nM
measure: Relative Luciferase Units (RLU), CD80 Cone 5.0 nM

H18Y/E35D/M47V/V68M/L85M (protein, UniProt P33681 35-288, looked up, variant H18Y E35D M47V V68M L85M) T-lymphocyte activation …: VIHVTKEVKEVATLSCGYNVSVEELAQTRIYWQKDKKMVLTMMSGDVNIWPEYKNRTIFDITNNLSIMILALRPSDEGTYECVVMKYEKDAFKREHLAEVTLSVKADFPTPSISDFEIPTSNIRRIICSTSGGFPEPHLSWLENGEELNAINTTVSQDPETELYAVSSKLDFNMTTNHSFMCLIKYGHLRVNQTFNWNTTKQEHFPDNLLPSWAITLISVNGIFVICCLTYCFAPRCRERRRNERLRRESVRPV; 1013
